assay: Terminal half life in Sprague-Dawley rat at 2 umol/kg, iv and 6 umol/kg, po; format: ADME, organism-based; conditions: in vivo, read-out: beta t1/2 (converted)
readoutName: half-life (min)
Write down the numeric answer in min and omit the unit.

Task: Which half-life reading was recorded for the molecule CN1C(=O)CC[C@H]1CN(Cc1ccc(Cl)cc1)S(=O)(=O)c1cccc(C#N)c1 ?
Output: 31.8

====

assay: Clearance in Sprague-Dawley rat at 2 umol/kg, iv and 6 umol/kg, po; type: ADME, organism-based; details: in vivo
readoutName: clearance (mL/min/kg)
Write down the numeric answer in mL/min/kg and omit the unit.

Task: Which clearance reading was recorded for the compound CN1C(=O)CC[C@H]1CN(Cc1ccc(Cl)cc1)S(=O)(=O)c1cccc(C#N)c1 ?
Output: 45

====

assay: Lipophilicity, log D of the compound by chromatography; type: physicochemical
readoutName: chromatographic logD
Reply with just the number.

N#Cc1cccc(S(=O)(=O)N(Cc2ccc(F)cc2)C[C@H]2CCC(=O)N2)c1    2.5

Task: Which chromatographic logD reading was recorded for the compound N#Cc1cccc(S(=O)(=O)N(Cc2ccc(Cl)cc2)C[C@@H]2CCC(=O)N2)c1 ?
Output: 3.1

Task: Next record, please: N#Cc1cccc(S(=O)(=O)N(Cc2ccc(F)cc2)C[C@@H]2CCC(=O)N2)c1
Output: 2.7

Task: Next record, please: O=C1CC[C@@H](CN(Cc2ccc(F)cc2)S(=O)(=O)c2cccc(F)c2)N1
Output: 3.1

Task: Next record, please: COc1cccc(S(=O)(=O)N(Cc2ccc(F)cc2)C[C@@H]2CCC(=O)N2)c1
Output: 3.1

Task: Next record, please: COc1ccc(S(=O)(=O)N(Cc2ccccc2)[C@H]2CCCC[C@@H]2O)cc1 (racemic)
Output: 4.6

Task: Next record, please: N#Cc1ccccc1S(=O)(=O)N(Cc1ccc(F)cc1)C[C@@H]1CCC(=O)N1
Output: 2.5

Task: Next record, please: O=C1CC[C@@H](CN(Cc2ccc(F)cc2)S(=O)(=O)c2ccc(F)cc2)N1
Output: 3

Task: Next record, please: N#Cc1cccc(S(=O)(=O)N(Cc2ccccc2Cl)C[C@@H]2CCC(=O)N2)c1
Output: 2.7

Task: Next record, please: O=S(=O)(c1ccc(F)cc1)N(Cc1ccc(F)cc1)Cc1ccccn1
Output: 4.7

Task: Next record, please: CS(=O)(=O)c1cccc(S(=O)(=O)N(Cc2ccc(F)cc2)C[C@@H]2CCC(=O)N2)c1
Output: 2

Task: Next record, please: O=C1CC[C@@H](CN(Cc2ccc(F)cc2)S(=O)(=O)c2ccccc2)N1
Output: 2.7

Task: Next record, please: O=C1CC[C@@H](CN(Cc2ccc(F)cc2)S(=O)(=O)c2cccc3c2OCCO3)N1
Output: 3

Task: Next record, please: CN1C(=O)CC[C@H]1CN(Cc1ccc(F)cc1)S(=O)(=O)c1cccc(C#N)c1
Output: 3.1

Task: Next record, please: O=C1CC[C@@H](CN(Cc2ccc(F)cc2)S(=O)(=O)c2cc(Cl)cc(Cl)c2)N1
Output: 4.4

Task: Next record, please: O=C1CC[C@@H](CN(Cc2ccc(F)cc2)S(=O)(=O)c2cccc(Cl)c2)N1
Output: 3.6

Task: Next record, please: N#Cc1cccc(S(=O)(=O)N(Cc2cccc(Cl)c2)C[C@@H]2CCC(=O)N2)c1
Output: 3

Task: Next record, please: CN1C(=O)CC[C@H]1CN(Cc1ccc(Cl)cc1)S(=O)(=O)c1cccc(C#N)c1
Output: 3.6
